# method notes: In-vivo absorbency (plasma concentrations & pharmacokinetic parameters)
# Parameters: species or system SD rat (male)
# details: plasma; 20 min; SD male rat, iv 20 mg/kg; read-out: Plasma Conc.
Entries and their concentration at 20 min

{"columns": ["compound", "concentration at 20 min, ng/mL"],
 "data": [
  ["C[n+]1c(N)cc(N)nc1SCC1=C(C(=O)[O-])N2C(=O)C(NC(=O)/C(=N\\OC(C)(C)C(=O)O)c3csc(N)n3)[C@H]2SC1 (some centres unmarked)", 29000],
  ["CC[n+]1c(N)cc(N)nc1SCC1=C(C(=O)[O-])N2C(=O)C(NC(=O)/C(=N\\OC(C)C(=O)O)c3csc(N)n3)C2SC1 (centres unmarked)", 29000],
  ["CCc1c(N)nc(SCC2=C(C(=O)[O-])N3C(=O)C(NC(=O)/C(=N\\OC(C)(C)C(=O)O)c4csc(N)n4)C3SC2)[n+](CC)c1N (centres unmarked)", 21000],
  ["CC[n+]1c(N)cc(N)nc1SCC1=C(C(=O)[O-])N2C(=O)C(NC(=O)/C(=N\\OCC(=O)O)c3csc(N)n3)C2SC1 (centres unmarked)", 36000],
  ["CC[n+]1c(SCC2=C(C(=O)[O-])N3C(=O)C(NC(=O)/C(=N\\OC(C)(C)C(=O)O)c4csc(N)n4)C3SC2)nc(N)c(C)c1N (centres unmarked)", 21000],
  ["Cc1c(N)nc(SCC2=C(C(=O)[O-])N3C(=O)C(NC(=O)/C(=N\\OC(C)(C)C(=O)O)c4csc(N)n4)C3SC2)[n+](N)c1N (centres unmarked)", 31000],
  ["CCO/N=C(\\C(=O)NC1C(=O)N2C(C(=O)[O-])=C(CSc3nc(N)cc(N)[n+]3N)CSC12)c1csc(N)n1 (centres unmarked)", 32000],
  ["Cc1c(N)nc(SCC2=C(C(=O)[O-])N3C(=O)C(NC(=O)/C(=N\\OC(C)(C)C(=O)O)c4csc(N)n4)C3SC2)[n+](C)c1N (centres unmarked)", 29000]
]}

---

# Tested on: Klebsiella pneumoniae ATCC 10031
# method notes: Antibacterial activity, MIC
# Assay type: cell-based
# details: ATCC10031, ATCC 10031, agar two-fold dilution, 37° C., 20 hours, read-out: MIC

{"columns": ["molecule", "unit", "operator symbol", "MIC"],
 "data": [
  ["C=CCO/N=C(\\C(=O)NC1C(=O)N2C(C(=O)[O-])=C(CSc3nc(N)cc(N)[n+]3CC)CSC12)c1csc(N)n1 (stereo not shown) [Compound I-50]", "µg/mL", "≤", 0.008],
  ["CC[n+]1c(N)cc(N)nc1SCC1=C(C(=O)[O-])N2C(=O)C(NC(=O)/C(=N\\OC)c3nsc(N)n3)C2SC1 (stereo not shown) [Compound I-25]", "µg/mL", "=", 0.031],
  ["CCc1c(N)nc(SCC2=C(C(=O)[O-])N3C(=O)C(NC(=O)/C(=N\\OC(C)(C)C(=O)O)c4csc(N)n4)C3SC2)[n+](C)c1N (stereo not shown) [Compound I-31]", "µg/mL", "=", 0.063],
  ["CCCC[n+]1c(N)cc(N)nc1SCC1=C(C(=O)[O-])N2C(=O)C(NC(=O)/C(=N\\OC(C)(C)C(=O)O)c3nsc(N)n3)C2SC1 (stereo not shown) [Compound I-29]", "µg/mL", "=", 0.13],
  ["CC[n+]1c(N)cc(N)nc1SCC1=C(C(=O)[O-])N2C(=O)C(NC(=O)/C(=N\\OC(C)C(=O)O)c3csc(N)n3)C2SC1 (stereo not shown) [Compound I-5]", "µg/mL", "=", 0.031],
  ["CO/N=C(\\C(=O)NC1C(=O)N2C(C(=O)[O-])=C(CSc3nc(N)cc(N)[n+]3C)CSC12)c1nsc(N)n1 (stereo not shown) [Compound I-24]", "µg/mL", "=", 0.031],
  ["CC[n+]1c(SCC2=C(C(=O)[O-])N3C(=O)C(NC(=O)/C(=N\\OC(C)(C)C(=O)O)c4csc(N)n4)C3SC2)nc(N)c(C)c1N (stereo not shown) [Compound I-32]", "µg/mL", "=", 0.063],
  ["CCC[n+]1c(N)cc(N)nc1SCC1=C(C(=O)[O-])N2C(=O)C(NC(=O)/C(=N\\OCC)c3nsc(N)n3)C2SC1 (stereo not shown) [Compound I-22]", "µg/mL", "=", 0.016],
  ["CCC[n+]1c(N)cc(N)nc1SCC1=C(C(=O)[O-])N2C(=O)C(NC(=O)/C(=N\\OC(C)(C)C(=O)O)c3nsc(N)n3)C2SC1 (stereo not shown) [Compound I-28]", "µg/mL", "=", 0.13],
  ["CCO/N=C(\\C(=O)NC1C(=O)N2C(C(=O)[O-])=C(CSc3nc(N)cc(N)[n+]3C)CSC12)c1nsc(N)n1 (stereo not shown) [Compound I-20]", "µg/mL", "=", 0.016],
  ["CC(C)(O/N=C(\\C(=O)NC1C(=O)N2C(C(=O)[O-])=C(CSc3nc(N)cc(N)[n+]3-c3ccccc3)CSC12)c1csc(N)n1)C(=O)O (stereo not shown) [Compound I-35]", "µg/mL", "=", 0.13],
  ["C=CC[n+]1c(N)cc(N)nc1SCC1=C(C(=O)[O-])N2C(=O)C(NC(=O)/C(=N\\OCC)c3nsc(N)n3)C2SC1 (stereo not shown) [Compound I-23]", "µg/mL", "=", 0.031],
  ["CC(O/N=C(\\C(=O)NC1C(=O)N2C(C(=O)[O-])=C(CSc3nc(N)cc(N)[n+]3C)CSC12)c1csc(N)n1)C(=O)O (stereo not shown) [Compound I-4]", "µg/mL", "=", 0.031]
]}

---

Entries and their MIC
# Tested on: Salmonella typhimurium ATCC 14028
# method notes: Antibacterial activity, MIC
# Assay type: cell-based
# details: Salmonella enterica; ATCC 14028; agar two-fold dilution, 37° C., 20 hours; read-out: MIC

{"columns": ["molecule", "MIC"],
 "data": [
  ["CC(O/N=C(\\C(=O)NC1C(=O)N2C(C(=O)[O-])=C(CSc3nc(N)cc(N)[n+]3C)CSC12)c1csc(N)n1)C(=O)O (stereo not drawn)", "0.13 µg/mL"],
  ["CCO/N=C(\\C(=O)NC1C(=O)N2C(C(=O)[O-])=C(CSc3nc(N)cc(N)[n+]3N)CSC12)c1nsc(N)n1 (stereo not drawn)", "0.5 µg/mL"],
  ["C[n+]1c(N)cc(N)nc1SCC1=C(C(=O)[O-])N2C(=O)C(NC(=O)/C(=N\\OCC(=O)O)c3csc(N)n3)C2SC1 (stereo not drawn)", "0.063 µg/mL"],
  ["CO/N=C(\\C(=O)NC1C(=O)N2C(C(=O)[O-])=C(CSc3nc(N)cc(N)[n+]3N)CSC12)c1csc(N)n1 (stereo not drawn)", "0.25 µg/mL"],
  ["CC(O/N=C(\\C(=O)NC1C(=O)N2C(C(=O)[O-])=C(CSc3nc(N)cc(N)[n+]3N)CSC12)c1csc(N)n1)C(=O)O (stereo not drawn)", "0.13 µg/mL"],
  ["CC[n+]1c(N)cc(N)nc1SCC1=C(C(=O)[O-])N2C(=O)C(NC(=O)/C(=N\\OC(C)C(=O)O)c3csc(N)n3)C2SC1 (stereo not drawn)", "0.13 µg/mL"]
]}

---

# System: Pseudomonas aeruginosa ATCC 27853
# method notes: Antibacterial activity, MIC
# Format: cell-based
# details: ATCC27853, ATCC 27853, agar two-fold dilution, 37° C., 20 hours, read-out: MIC
measured property: MIC

{"columns": ["compound", "measured property", "experimental result"],
 "data": [
  ["CC(C)(O/N=C(\\C(=O)NC1C(=O)N2C(C(=O)[O-])=C(CSc3nc(N)cc(N)[n+]3-c3ccc(O)cc3)CSC12)c1csc(N)n1)C(=O)O (stereo not drawn)", "MIC", "1 µg/mL"],
  ["C=CC[n+]1c(N)cc(N)nc1SCC1=C(C(=O)[O-])N2C(=O)C(NC(=O)/C(=N\\OCC(=O)O)c3csc(N)n3)C2SC1 (stereo not drawn)", "MIC", "4 µg/mL"],
  ["COc1cccc(OC)c1-[n+]1c(N)cc(N)nc1SCC1=C(C(=O)[O-])N2C(=O)C(NC(=O)/C(=N\\OC(C)(C)C(=O)O)c3csc(N)n3)C2SC1 (stereo not drawn)", "MIC", "4 µg/mL"],
  ["CCC[n+]1c(N)cc(N)nc1SCC1=C(C(=O)[O-])N2C(=O)C(NC(=O)/C(=N\\OCC)c3nsc(N)n3)C2SC1 (stereo not drawn)", "MIC", "4 µg/mL"],
  ["Cc1c(N)nc(SCC2=C(C(=O)[O-])N3C(=O)C(NC(=O)/C(=N\\OC(C)(C)C(=O)O)c4csc(N)n4)C3SC2)[n+](N)c1N (stereo not drawn)", "MIC", "2 µg/mL"],
  ["CCC[n+]1c(N)cc(N)nc1SCC1=C(C(=O)[O-])N2C(=O)C(NC(=O)/C(=N\\OC(C)(C)C(=O)O)c3nsc(N)n3)C2SC1 (stereo not drawn)", "MIC", "2 µg/mL"]
]}

Measured values drawn from patent US5202315A for this set.
